// provenance: patent US10487093B2

System: strains of Propionibacterium acnes
assay-summary: MIC against anaerobes, agar dilution (CLSI), clinical isolates
Assay type: cell-based
test-settings: Cutibacterium acnes, Propionibacterium acnes strain 10
measurement-type: MIC

// query Given Cc1ncc([N+](=O)[O-])n1CCO [MTZ, metronidazole, reference compound] , state its recorded MIC.
// result 16 to 64 µg/mL

// query Param item: COc1ccc2ncc(=O)n(CCN[C@@H]3CC[C@@H]4[C@@H](C3)OC(=O)N4c3ccc4c(n3)NC(=O)CO4)c2c1
// result < 1 µg/mL

// query Next record, please: CN[C@H](CC(C)C)C(=O)N[C@H]1C(=O)N[C@@H](CC(N)=O)C(=O)N[C@H]2C(=O)N[C@H]3C(=O)N[C@H](C(=O)N[C@H](C(=O)O)c4cc(O)cc(O)c4-c4cc3ccc4O)[C@H](O)c3ccc(c(Cl)c3)Oc3cc2cc(c3O[C@@H]2O[C@H](CO)[C@@H](O)[C@H](O)[C@H]2O[C@H]2C[C@](C)(N)[C@H](O)[C@H](C)O2)Oc2ccc(cc2Cl)[C@H]1O [VAN, vancomycin, reference compound]
// result < 1 µg/mL

// query Record: Cc1ccc2ncc(=O)n(CCN[C@H]3CC[C@H]4[C@@H](C3)OC(=O)N4c3ccc4c(n3)NC(=O)CO4)c2c1
// result 1 to 4 µg/mL
